- test-method-notes: Minimum tolerated dose is the lethal dose for 10% normal mice for deaths during 21 days
- Type: ADME, organism-based
- settings: mouse, in vivo
Give measured MTD at 504 h for each item. Keep answers brief.
Give bare numbers, in mg/kg.

Cc1c2oc3c(C)c(O)c(N)c(C(=O)N[C@@H]4C(=O)N[C@H](C(C)C)C(=O)N5CCC[C@H]5C(=O)N(C)CC(=O)N(C)[C@@H](C(C)C)C(=O)O[C@@H]4C)c3nc-2c(C(=O)N[C@@H]2C(=O)N[C@H](C(C)C)C(=O)N3CCC[C@H]3C(=O)N(C)CC(=O)N(C)[C@@H](C(C)C)C(=O)O[C@@H]2C)cc1=O = 3.5
Cc1c2oc3c(C)c4oc(-c5ccccc5)nc4c(C(=O)N[C@@H]4C(=O)N[C@H](C(C)C)C(=O)N5CCC[C@H]5C(=O)N(C)CC(=O)N(C)[C@@H](C(C)C)C(=O)O[C@@H]4C)c3nc-2c(C(=O)N[C@@H]2C(=O)N[C@H](C(C)C)C(=O)N3CCC[C@H]3C(=O)N(C)CC(=O)N(C)[C@@H](C(C)C)C(=O)O[C@@H]2C)cc1=O = 2

The record that follows has no MTD at 504 h shown yet.
# get_value(readout='MTD at 504 h', item= Cc1c2oc3c(C)c(O)c(N)c(C(=O)N[C@@H]4C(=O)N[C@H](C(C)C)C(=O)N5CCC[C@H]5C(=O)N(C)CC(=O)N(C)[C@@H](C(C)C)C(=O)O[C@@H]4C)c3nc-2c(C(=O)N[C@@H]2C(=O)N[C@H](C(C)C)C(=O)N3CCC[C@H]3C(=O)N(C)CC(=O)N(C)[C@@H](C(C)C)C(=O)O[C@@H]2C)c(N)c1=O )
2.4

Data provenance is ChEMBL document CHEMBL1123113.
